tested on: NCI-H358 cells (express KRas G12C), Phospho-ERK; assay: Cellular inhibition of KRas G12C: Phospho-ERK in NCI-H358 cells; format: cell-based; conditions: Homo sapiens, NCI-H358, 3 h, pERK(Thr202/Tyr204) normalized with GAPDH; NCI-H358 cells; 3 hours; read-out: IC50
pIC50: −log10 of the molar value. Counter-ions that a name gives are not always drawn.
experimental_endpoint: pIC50

Task: Specify reported pIC50 for the compound shown: C=CC(=O)N1CCN(c2nc(OC[C@@H]3CCCN3C)nc3c2CCN(c2cccc(F)c2C(F)(F)F)C3)CC1CC#N (stereo partly drawn)
Result: 6.00 to 10.00

Task: Specify reported pIC50 for the compound shown: C=CC(=O)N1CCN(c2nc(OC[C@@H]3CCCN3C)nc3c2CCN(c2c(C)c(C)cc4[nH]ccc24)C3)CC1
Result: 6.00 to 10.00

Task: Specify reported pIC50 for the compound shown: C=CC(=O)N1CCN(c2nc(OC[C@@H]3C[C@@H](OC)CN3CC)nc3c2CCN(c2cccc(Cl)c2C(F)(F)F)C3)C[C@@H]1CC#N
Result: 6.00 to 10.00

Task: Specify reported pIC50 for the compound shown: C=CC(=O)N1CCN(c2nc(OCCN3CCC(OC)C3)nc3c2CCN(c2cc(O)cc4ccccc24)C3)CC1 (stereo not drawn)
Result: < 6.00

Task: Specify reported pIC50 for the compound shown: C=CC(=O)N1CCN(c2nc(OCCN3CCS(=O)(=O)CC3)nc3c2CCN(c2cc(O)cc4ccccc24)C3)CC1 [Example 33, trifluoroacetate]
Result: < 6.00

Task: Specify reported pIC50 for the compound shown: C/C=C/C(=O)N1CCN(c2nc(OC[C@@H]3CCCN3C)nc3c2CCN(c2cc(O)cc4ccccc24)C3)CC1
Result: < 6.00

Task: Specify reported pIC50 for the compound shown: C=CC(=O)N1CCN(c2nc(OC[C@@H]3C[C@H](F)CN3C)nc3c2CCN(c2cccc4ccccc24)C3)CC1CC#N (stereo partly drawn)
Result: 6.00 to 10.00

Task: Specify reported pIC50 for the compound shown: C=CC(=O)N1CCN(c2nc(OC[C@H]3C[C@H](O)CN3C)nc3c2CCN(c2cccc(F)c2C(F)(F)F)C3)CC1CC#N (stereo partly drawn)
Result: 6.00 to 10.00

Task: Specify reported pIC50 for the compound shown: C=CC(=O)N1CCN(c2nc(O[C@H](C)CN(C)C)nc3c2CCN(c2cccc4ccccc24)C3)CC1
Result: < 6.00

====

system: NCI-H358 cells (express KRas G12C), Phospho-ERK; experiment: Cellular inhibition of KRas G12C: Phospho-ERK in NCI-H358 cells; format: cell-based; conditions: Homo sapiens, NCI-H358, 3 h, pERK(Thr202/Tyr204) normalized with GAPDH; NCI-H358 cells; 3 hours; read-out: IC50
experimental_endpoint: IC50

Task: Specify reported IC50 for the compound shown: C=CC(=O)N1CCN(c2nc(O[C@@H](C)CN(C)C)nc3c2CCN(c2cc(O)cc4ccccc24)C3)CC1 [Example 8]
Result: > 1000 nM

Task: Specify reported IC50 for the compound shown: C=CC(=O)N1CCN(c2nc(OC[C@@H]3CCCN3C)nc3c2CCN(c2cccc4ccccc24)C3)[C@@H](C#N)C1 [Example 462]
Result: > 1000 nM

Task: Specify reported IC50 for the compound shown: C=CC(=O)N1CCN(c2nc(OC[C@@H]3CCCN3C)nc3c2CCN(c2cncc(Cl)c2C)C3)C[C@@H]1CC#N [Example 387]
Result: 0.1 to 1000 nM

Task: Specify reported IC50 for the compound shown: CN(C)C/C=C/C(=O)N1CCN(c2nc(OC[C@@H]3CCCN3C)nc3c2CCN(c2cccc4ccccc24)C3)C[C@@H]1CC#N [Example 235]
Result: 0.1 to 1000 nM

Task: Specify reported IC50 for the compound shown: C=CC(=O)N1CCN(c2ncnc3c2CCN(c2c(C)ccc4[nH]ncc24)C3)CC1 [Example 7]
Result: > 1000 nM

Task: Specify reported IC50 for the compound shown: C=CC(=O)N1CCN(c2nc(OC[C@@H]3CCCN3C)nc3c2CCN(c2cccc4cccc(C)c24)C3)CC1CC#N (some centres unmarked) [Example 309]
Result: 0.1 to 1000 nM

Task: Specify reported IC50 for the compound shown: C=CC(=O)N1CCN(c2nc(OC[C@@H]3CCCN3C)nc3c2CCN(c2cc(O)cc4ccccc24)C3)[C@@H](C)C1 [Example 202]
Result: 0.1 to 1000 nM

Task: Specify reported IC50 for the compound shown: C=CC(=O)N1CCN(c2nc(O[C@H](C)CN3CCN(C(C)=O)CC3)nc3c2CCN(c2cc(O)cc4ccccc24)C3)CC1 [Example 36]
Result: > 1000 nM

Task: Specify reported IC50 for the compound shown: C=CC(=O)N1CCN(c2nc(OC[C@@H]3CCCN3C)nc3c2CCN(c2c(C)ccc(F)c2C)C3)C[C@@H]1CC#N [Example 349]
Result: 0.1 to 1000 nM

Task: Specify reported IC50 for the compound shown: C=CC(=O)N1CCN(c2nc(O[C@H](C)CN3CCCCC3)nc3c2CCN(c2cc(O)cc4ccccc24)C3)CC1 [Example 75]
Result: 0.1 to 1000 nM

Task: Specify reported IC50 for the compound shown: C=CC(=O)N1CCN(c2nc(OC[C@@H]3CCCN3CC)nc3c2CCN(c2ccc(F)c4ccccc24)C3)CC1CC#N (some centres unmarked) [Example 322]
Result: 0.1 to 1000 nM

Task: Specify reported IC50 for the compound shown: C=CC(=O)N1CCN(c2nc(OCC(C)N(C)C)nc3c2CCN(c2cc(O)cc4ccccc24)C3)CC1 (centres unmarked) [Example 73]
Result: > 1000 nM

Task: Specify reported IC50 for the compound shown: C=CC(=O)N1CCN(c2nc(OC[C@]3(C)CCCN3C)nc3c2CCN(c2cccc4ccccc24)C3)CC1CC#N (some centres unmarked) [Example 394]
Result: 0.1 to 1000 nM

Task: Specify reported IC50 for the compound shown: C=CC(=O)N1CCN(c2nc(OC[C@@H]3CCCN3C)nc3c2CCN(c2cccc4ccccc24)C3)CC1COC (some centres unmarked) [Example 256]
Result: > 1000 nM
